From: ChEMBL document CHEMBL1201862

tested on: TK-10; assay: NCI tumour cell line growth inhibition, 48 h
The source made the active and inactive calls. No stated cut-off is given here; in the data, active = GI50 up to about 1.1 µM and inactive = higher.
Entries and their GI50 values follow.

Before answering, review these 4 worked examples.
Compound | GI50
CC(=O)Nc1ccc(OC/C(N)=N/NC(=O)c2ccncc2)cc1 | > 100 µM (inactive)
Cc1ccc(S(N)(=O)=O)cc1 [P-TOLUENESULFONAMIDE] | > 1000 µM (inactive)
CCOC(=O)CCC(C(=O)OCC)n1nc2ccc(Nc3c(C)[n+]([O-])c4cc(F)c(OCC)cc4[n+]3[O-])cc2n1 (stereo not drawn) | 42.7 µM (inactive)
CCCCN(CC)CC(C(C)=O)c1c(O)c2ccccc2oc1=O (stereo not drawn) | > 100 µM (inactive)

Can you look up the measured GI50 of COC(=O)c1cc(C)n2c1CS[C@@H]2c1ccccc1 for me?
66.4 µM (inactive)

GI50 for C/C=C(\C)C(=O)OC1/C=C(\C)CC/C=C(\C)CC2OC(=O)C(C)(OC(C)=O)C12 (stereo not drawn) ?
> 100 µM (inactive)

Query: GI50; subject: Cn1c(-c2cccs2)cc(-c2cccs2)c1-c1ccsc1
> 100 µM (inactive)

# lookup: GI50 of O=C1C=C(Nc2ccccc2C(=O)CC(=O)C(=O)Nc2ccc(Cl)cc2)c2ccccc2C1=O
> 74.5 µM (inactive)

Sample Cc1nnc2sc(Cl)nn12 — what was its GI50?
27.7 µM (inactive)

I would be grateful if you could share the reported GI50 for COc1ccc(C(=O)O/N=C2/CCCCC2CN(C)C)cc1 (stereo not drawn) .
> 100 µM (inactive)

Given the compound O=c1/c(=C/c2c(O)ccc3ccccc23)sc2nc3ccccc3n12 , what is its reported GI50?
> 100 µM (inactive)

Would you mind telling me what GI50 value was observed for O=C(O)c1cc(-c2ccc3cc(O)c(O)cc3c2)ccc1O ?
> 12.5 µM (inactive)

Item under review: COc1ccc2c(c1)C1Oc3ccccc3CC1CO2 (stereo not drawn) . Reported GI50?
73.1 µM (inactive)

Give the measured GI50 of COc1cc2c(Cc3cc(OCc4ccccc4)ccc3N)nccc2c(OC)c1OC .
> 10 µM (inactive)

# GI50 lookup, item Cn1c(=N)n[n+]([O-])c2ccccc21
25.6 µM (inactive)

// returns reported GI50 for input CC1(C)C2C/C(=C\c3ccccc3)C(=O)C1C2 (stereo not drawn)
> 100 µM (inactive)

----------
GI50: recorded values
test system: UO-31; test: NCI tumour cell line growth inhibition, 48 h
Active and inactive are the calls of the source. Rule as the data show it: active = GI50 up to about 1.1 µM and inactive = higher.

Check out these entries, answers already filled in.
Molecule | Result
CC(=O)O[C@H]1CCC2[C@@H]3CCC4=C(O)c5nocc5C[C@]4(C)C3CC[C@@]21C (stereo partly drawn) | > 100 µM (inactive)
COC1C=C(Nc2cccc(Cl)c2)C(=O)C1 (stereo not drawn) | 41.2 µM (inactive)

Now consider the entry below.
Entry under review: O=C(CN(c1ccccc1)c1ccccc1)n1nnc2ccccc21 . Reported GI50?
14.3 µM (inactive)

----------
tested on: SK-MEL-5; experiment: NCI tumour cell line growth inhibition, 48 h
The source made the active and inactive calls. Rule as the data show it: active = GI50 up to about 1.1 µM and inactive = higher.
Choose one outcome from this list and give only that: TRUE (active), FALSE (inactive)

Answered examples (3):
Compound | Class
CC(C)=C[C@H]1CCC2(OCCO2)[C@]1(C)COCc1ccccc1 | FALSE
CN(C)Cc1cc(/N=N/c2ccc(Cl)cc2)ccc1O | FALSE
O=C1OI(C#Cc2ccccc2)c2ccccc21 | FALSE

Consider the additional compound presented here.
Short answer needed: outcome of this test for O=[N+]([O-])c1cc2ncc(-c3ccccc3)c(O)c2cc1/C(Cl)=C/c1ccccc1 ?
FALSE
